Tested on: strains of Prevotella melaninogenica
Assay: MIC against anaerobes, agar dilution (CLSI), clinical isolates
Type: cell-based
Details: Prevotella melaninogenica strain 7
Assignment: determine reported MIC for the given compounds.

// sample Cc1ccc2ncc(=O)n(CCN[C@H]3CC[C@H]4[C@@H](C3)OC(=O)N4c3ccc4c(n3)NC(=O)CO4)c2c1 , its MIC was < 1 µg/mL

// sample CN[C@H](CC(C)C)C(=O)N[C@H]1C(=O)N[C@@H](CC(N)=O)C(=O)N[C@H]2C(=O)N[C@H]3C(=O)N[C@H](C(=O)N[C@H](C(=O)O)c4cc(O)cc(O)c4-c4cc3ccc4O)[C@H](O)c3ccc(c(Cl)c3)Oc3cc2cc(c3O[C@@H]2O[C@H](CO)[C@@H](O)[C@H](O)[C@H]2O[C@H]2C[C@](C)(N)[C@H](O)[C@H](C)O2)Oc2ccc(cc2Cl)[C@H]1O [VAN, vancomycin, reference compound] , its MIC was 16 to 64 µg/mL

// sample Cc1ncc([N+](=O)[O-])n1CCO [MTZ, metronidazole, reference compound] , its MIC was < 1 µg/mL

// sample COc1ccc2ncc(=O)n(CCN[C@@H]3CC[C@@H]4[C@@H](C3)OC(=O)N4c3ccc4c(n3)NC(=O)CO4)c2c1 , its MIC was < 1 µg/mL

Hello, the source for this data is patent US10487093B2, in case you need it.
